pIC50 reference
target: Cytochrome P450 11B2, mitochondrial (Homo sapiens, UniProt P19099); experiment: Inhibition of CYP11B2 in human […] cells assessed as decrease in […] aldosterone secretion after 24 hrs by RIA; assay type: cell-based
Sequence (P19099 whole entry): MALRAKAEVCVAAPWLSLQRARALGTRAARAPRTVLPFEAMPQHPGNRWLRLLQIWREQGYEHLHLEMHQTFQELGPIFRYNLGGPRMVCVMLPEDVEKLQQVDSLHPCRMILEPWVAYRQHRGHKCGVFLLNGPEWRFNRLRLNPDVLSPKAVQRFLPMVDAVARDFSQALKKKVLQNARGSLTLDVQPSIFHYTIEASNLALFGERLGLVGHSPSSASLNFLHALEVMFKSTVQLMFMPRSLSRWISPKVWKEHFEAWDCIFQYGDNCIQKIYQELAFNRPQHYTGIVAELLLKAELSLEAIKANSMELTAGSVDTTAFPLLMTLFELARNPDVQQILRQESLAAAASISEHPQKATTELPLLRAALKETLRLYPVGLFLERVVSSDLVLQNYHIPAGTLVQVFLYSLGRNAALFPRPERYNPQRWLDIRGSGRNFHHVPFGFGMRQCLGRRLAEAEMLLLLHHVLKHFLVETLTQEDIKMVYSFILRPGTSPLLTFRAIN
Scale: negative log10 of molar concentration, which is what pIC50 denotes.

Observe how each entry below is paired with its result.
compound_string: CCS(=O)(=O)NCc1cncc(-c2cc3ccc(Cl)nc3n2C)c1
subject_of_test: Cytochrome P450 11B2, mitochondrial (Homo sapiens, UniProt P19099)
observed_value: 8.15
//
compound_string: CCS(=O)(=O)Nc1cncc(-c2c(C#N)c3ccc(Cl)cc3n2C)c1
subject_of_test: Cytochrome P450 11B2, mitochondrial (Homo sapiens, UniProt P19099)
observed_value: 7.89
//
compound_string: Cc1c(-c2cccnc2)n(C)c2ccccc12
subject_of_test: Cytochrome P450 11B2, mitochondrial (Homo sapiens, UniProt P19099)
observed_value: 8.05
//
compound_string: CN(C)S(=O)(=O)Oc1cncc(-c2c(C#N)c3ccccc3n2C)c1
subject_of_test: Cytochrome P450 11B2, mitochondrial (Homo sapiens, UniProt P19099)
observed_value: 7.41
//
compound_string: Cn1c(-c2cccnc2)c(C#N)c2ccccc21
subject_of_test: Cytochrome P450 11B2, mitochondrial (Homo sapiens, UniProt P19099)
observed_value: 7.05

The measured pIC50 associated with CCS(=O)(=O)NCc1cncc(-c2cc3cnc(Cl)cc3n2C)c1 reads 6.77

Measured pIC50 of CCS(=O)(=O)Nc1cncc(-c2c(C#N)c3ccccc3n2C)c1 : 6.42

Item: Cn1c(-c2cccnc2)c(C#N)c2ccc(Cl)cc21 | pIC50: 8.40

Per the records, this compound ( Cc1c(-c2cccnc2)[nH]c2ccccc12 ) has pIC50 equal to 7.68

====

test: Cmax in healthy human at 200 mg/kg, po bid; assay type: ADME, organism-based; parameters: dose 200 mg/kg, route oral; details: in vivo
measured_property: Cmax (ng/mL)
Output spec: scalar in ng/mL, unitless text.

Just so you know, measured Cmax for CCS(=O)(=O)NCc1cncc(-c2c(C#N)c3ccc(Cl)cc3n2C)c1 came out at 306

====

species on record: Homo sapiens; test: Selectivity ratio of IC50 for human recombinant CYP11B1 to IC50 for human recombinant CYP11B2
measured_property: Ratio IC50
Answer with the value's number alone.

Answered examples (7):
compound_string: Cc1c(-c2cccnc2)n(C)c2ccccc12
Ratio IC50: 38

compound_string: Cc1c(-c2cccnc2)[nH]c2ccccc12
Ratio IC50: 27

compound_string: CN(C)S(=O)(=O)Oc1cncc(-c2c(C#N)c3ccccc3n2C)c1
Ratio IC50: 103

compound_string: Cn1c(-c2cccnc2)c(C#N)c2ccc(Cl)cc21
Ratio IC50: 43

compound_string: Cn1c(-c2cccnc2)c(C#N)c2ccccc21
Ratio IC50: 56

compound_string: CCS(=O)(=O)Nc1cncc(-c2c(C#N)c3ccc(Cl)cc3n2C)c1
Ratio IC50: 43

compound_string: CCS(=O)(=O)NCc1cncc(-c2cc3ccc(Cl)nc3n2C)c1
Ratio IC50: 86

For record CCS(=O)(=O)NCc1cncc(-c2cc3cnc(Cl)cc3n2C)c1 the listed Ratio IC50 is 21

====

assay: Tmax in healthy human at 100 mg/kg, po bid; type: ADME, organism-based; conditions: in vivo
measured_property: Tmax (h)
Give the value in h but do not write h after it.

Recorded result, CCS(=O)(=O)NCc1cncc(-c2c(C#N)c3ccc(Cl)cc3n2C)c1 , Tmax: 4

Cited source: ChEMBL document CHEMBL3745671
